Reference source: PubChem BioAssay (NCI)

Measured TGI by item
test system: OVCAR-5 ovarian; assay: NCI tumour cell line growth inhibition, 48 h

Record excerpt, results attached:
OC(c1nc2ccccc2s1)(C(F)(F)F)C(F)(F)F :: > 100 µM
N#C[S-].[Nd+3].c1cnc2c(c1)ccc1cccnc12.c1cnc2c(c1)ccc1cccnc12.c1cnc2c(c1)ccc1cccnc12 :: 15.3 µM
COc1cc(C2c3cc4c(cc3OC(NC3CCCCC3)C2C)OCO4)cc(OC)c1OC (stereo unspecified) :: > 100 µM

[Q] Indicate the recorded TGI value for this compound: Cc1nc(Cl)nc(Cl)c1C
[A] > 100 µM

[Q] # return recorded TGI for input COc1cc(N(CCC#N)CCC#N)ccc1/C=C1\SC(=S)NC1=O
[A] > 100 µM

[Q] Answer with the recorded TGI of CCCN(CCC)C(=O)C1=Cc2ccc(-c3ccc(C(=O)N4CCCC4)cc3)cc2N=C(N)C1 only.
[A] 64.9 µM

* * *

In this section we review reported TGI values for a set of compounds.
system: SF-268 CNS; experiment: NCI tumour cell line growth inhibition, 48 h
Give the value in µM but do not write µM after it.

CCOC(=O)c1c(N)nn2c1cc1cccccc12 :: 68.2
Cc1cc(C)nc(NS(=O)(=O)c2ccc(Nc3nncc(=O)n3N)cc2)n1 :: 39.7
CC1=C[C@H]2c3c(c(O)c(O)c4oc5c(C)cccc5c(=O)c34)[C@H](c3cc(O)c(O)c4oc5c(C)cccc5c(=O)c34)[C@H]2C(C)(C)C1 :: 11.7
Cn1c2ccccc2c2c(-c3ccccc3)[n+]3ccccc3nc21 :: 38.8
CC[C@@H](C(=O)[C@@H](C)[C@@H](O)[C@H](C)[C@@H]1O[C@@H]([C@@H](CC)C(=O)O)CC[C@@H]1C)C1O[C@]2(C=CC(=O)[C@]3(CC[C@@](C)([C@H]4CC[C@](O)(CC)[C@H](C)O4)O3)O2)[C@H](C)C[C@@H]1C (some centres not stated) :: 15.7
CC1(c2ccc(F)cc2)CC(c2ccc(F)cc2)=C(C#N)C(=C(C#N)C#N)N1 (configuration not stated) :: 37

[Q] In one line, give reported TGI of the entry COC1=C2CC(C)CC(OC)[C@@H](OC(=O)CCN)[C@H](C)/C=C(\C)C(OC(N)=O)C(OC)/C=C\C=C(/C)C(=O)NC(=CC1=O)C2=O (some centres not stated) .
[A] 26.2

* * *

tested on: HCT-116 colon; assay: NCI tumour cell line growth inhibition, 48 h; in the data active = GI50 below about 0.43 µM; inactive = the rest
Could you please pick one outcome from this set? active, inactive

# example entries with known answers
C1=Cc2ccccc2Nc2ccccc21 :: inactive
O=c1c2cccc(Cl)c2sc2c(NCCCNCCO)nc3ccccc3c12 :: inactive

[Q] Record lookup: outcome of this test for Oc1ccc2cc(Br)ccc2c1-c1c(O)ccc2cc(Br)ccc12 ?
[A] inactive

[Q] Hi team, can someone confirm the assay call for Cn1nccc1Nc1nccc(-c2cc3c(s2)C(C)(C)N(CCN2CCOCC2)C3=O)n1 ?
[A] inactive

[Q] Record lookup: outcome of this test for O=C(Nc1ccccc1O)c1cccc(NC2=C(Cl)C(=O)N(Cc3ccccc3)C2=O)c1 ?
[A] inactive

* * *

tested on: LOX IMVI melanoma; assay: NCI tumour cell line growth inhibition, 48 h
Listed below: GI50 values for each entry.

Answered examples (2):
Cn1cc(C2=C(c3cccc4ccccc34)C(=O)NC2=O)c2ccccc21 :: 6960 nM
CC1CC2(C)ON=C(c3ccccc3)N2c2ccccc2S1 (stereo not given) :: 22000 nM

With those in mind, consider the next molecule.
[Q] State its GI50: COc1cc(NS(C)(=O)=O)ccc1Nc1c2ccc(Cl)cc2nc2c(OC)cccc12
[A] 109 nM
